Tested on: Plasmodium falciparum
method notes: GSK_TCMDC: Inhibition of Plasmodium falciparum 3D7 LDH activity, using an LDH reporter assay. Test compounds present at 2uM
Type: functional, organism-based
Among all 13,000 compounds or so, fewer than 10 showed an effect of 50% or more. These entries were drawn from the full list.
recorded endpoint: inhibition (%)
Answers are plain numbers, in %.

Quick batch: inhibition for everything below.
1. FC(F)(F)c1cccc(Nc2nc3nonc3nc2NC2C3CC4CC(C3)CC2C4)c1 (stereo unspecified)
2. COc1ccc(OC)c(-c2ccc(=O)n(CC(=O)Nc3cccc4ccccc34)n2)c1
3. N#Cc1cccc(C(=O)Nc2ccc(-c3ccc(CN4CCCC4)cc3)cc2)c1
4. Cc1cccc2nc(-c3cccc(-c4ccc(NC(=O)c5cnccc5C(F)(F)F)cc4)c3)[nH]c12
5. OCc1ccc(-c2cncc(Nc3cccc(Cl)c3)c2)cc1

0
3
0
0
0

I'd like to know its inhibition. The compound in question is CCc1c[nH]c2c(N3CCCS3(=O)=O)cc(C(=O)N[C@@H](Cc3ccccc3)[C@H](O)CNC(C)(C)CCCC(C)C)cc12
0
